# credit: ChEMBL document CHEMBL4680288

- tgt: Cholesteryl ester transfer protein (Homo sapiens)
- Sequence (P11597 whole entry): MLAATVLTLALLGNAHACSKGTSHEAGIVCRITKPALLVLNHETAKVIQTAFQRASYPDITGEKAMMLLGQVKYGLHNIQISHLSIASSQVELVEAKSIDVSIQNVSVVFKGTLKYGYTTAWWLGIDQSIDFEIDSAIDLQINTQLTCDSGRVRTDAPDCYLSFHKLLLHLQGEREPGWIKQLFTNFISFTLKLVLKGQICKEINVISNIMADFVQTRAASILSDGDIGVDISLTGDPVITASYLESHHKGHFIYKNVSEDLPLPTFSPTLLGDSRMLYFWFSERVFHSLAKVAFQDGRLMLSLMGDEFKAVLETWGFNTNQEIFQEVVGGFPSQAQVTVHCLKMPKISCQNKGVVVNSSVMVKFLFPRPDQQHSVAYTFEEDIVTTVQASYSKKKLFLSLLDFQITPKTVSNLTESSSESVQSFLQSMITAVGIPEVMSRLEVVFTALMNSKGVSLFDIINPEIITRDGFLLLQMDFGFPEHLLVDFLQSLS
- assayRemarks: Inhibition of CETP in 95% human serum assessed as inhibition of transfer of [3H] cholesteryl oleate or [3H] triolein between LDL and HDL
- Assay type: cell-free
Kindly state IC50 for each of the entries shown.
Answer format: numeric, nM implied, no suffix.

// query Entry COc1ccc([C@H]2CC[C@H](C(=O)O)CC2)cc1-c1ccc(C(F)(F)F)cc1[C@@H]1CC[C@H]2[C@@H](c3cc(C(F)(F)F)cc(C(F)(F)F)c3)NS(=O)(=O)N12 has what IC50?
// result 2680

// query Param item: COc1ncc(-c2c(C)cc(C(=O)NC3(C#N)CC3)cc2C)cc1-c1ccc(C(F)(F)F)cc1[C@@H]1CC[C@H]2[C@@H](c3cc(C(F)(F)F)cc(C(F)(F)F)c3)NC(=O)N12
// result 95

// query Param item: COc1ccc(-c2ccc(C(=O)O)cc2C)cc1-c1ccc(C(F)(F)F)nc1CN1C(=O)N[C@H](c2cc(C(F)(F)F)cc(C(F)(F)F)c2)[C@@H]1C
// result 446

// query Param item: COc1ncc(-c2ccc(C(=O)O)cc2C)cc1-c1ccc(C(F)(F)F)cc1CN1C(=O)N(C)[C@H](c2cc(C(F)(F)F)cc(C(F)(F)F)c2)[C@@H]1C
// result 129

// query Param item: COc1ccc([C@H]2CC[C@H](C(=O)O)CC2)cc1-c1ccc(C(F)(F)F)cc1[C@@H]1CC[C@H]2[C@@H](c3cc(C(F)(F)F)cc(C(F)(F)F)c3)NC(=O)N12
// result 1730

---

Kindly state concentration at 4 h for each of the entries shown.
- assayRemarks: Plasma concentration in cynomolgus-CETP transgenic mouse at 0.3 mg/kg, po measured after 4 hrs
- Type: ADME, organism-based
Answer format: numeric, nM implied, no suffix.

// query Entry COc1ncc(-c2ccc(C(=O)O)cc2C)cc1-c1ccc(C(F)(F)F)cc1CN1C(=O)N(C)[C@H](c2cc(C(F)(F)F)cc(C(F)(F)F)c2)[C@@H]1C has what concentration at 4 h?
// result 630

// query Param item: COc1ncc(-c2ccc(C(=O)O)cc2C)cc1-c1ccc(C(F)(F)F)cc1[C@@H]1CC[C@H]2[C@@H](c3cc(C(F)(F)F)cc(C(F)(F)F)c3)NC(=O)N12
// result 550

---

- tgt: Cholesteryl ester transfer protein (Homo sapiens)
- Sequence (P11597 whole entry): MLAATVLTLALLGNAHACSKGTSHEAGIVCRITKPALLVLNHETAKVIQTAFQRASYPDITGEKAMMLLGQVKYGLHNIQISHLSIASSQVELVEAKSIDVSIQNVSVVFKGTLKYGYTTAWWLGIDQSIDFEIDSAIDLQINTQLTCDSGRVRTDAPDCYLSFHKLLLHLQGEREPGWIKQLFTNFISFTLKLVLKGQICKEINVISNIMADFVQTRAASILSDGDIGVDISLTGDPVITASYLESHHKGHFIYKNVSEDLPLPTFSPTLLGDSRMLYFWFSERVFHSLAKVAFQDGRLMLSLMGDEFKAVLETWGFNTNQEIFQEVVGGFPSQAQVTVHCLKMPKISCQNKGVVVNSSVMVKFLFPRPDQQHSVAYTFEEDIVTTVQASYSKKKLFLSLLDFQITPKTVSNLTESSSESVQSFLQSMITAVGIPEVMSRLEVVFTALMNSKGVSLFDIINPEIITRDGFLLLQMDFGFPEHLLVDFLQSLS
- assayRemarks: Inhibition of CETP in 95% human serum assessed as inhibition of transfer of [3H] cholesteryl oleate or [3H] triolein between LDL and HDL
- Type: cell-free
property: pIC50
Remember, pIC50 is on a log scale: it is -log10 of the molar concentration.

// query Entry COc1ncc(-c2ccc(C(=O)O)cc2C)cc1-c1ccc(C(F)(F)F)cc1[C@@H]1CC[C@H]2[C@@H](c3cc(C(F)(F)F)cc(C(F)(F)F)c3)NC(=O)N12 has what pIC50?
// result 6.52

// query Param item: COc1ncc(-c2ccc(C(=O)O)cc2C)cc1-c1ccc(C(F)(F)F)cc1CN1C(=O)N[C@H](c2cc(C(F)(F)F)cc(C(F)(F)F)c2)[C@@H]1C
// result 6.40

// query Param item: COc1ccc(-c2ccc(C(=O)O)cc2C)cc1-c1ccc(C(F)(F)F)cc1CN1C(=O)N[C@H](c2cc(C(F)(F)F)cc(C(F)(F)F)c2)[C@@H]1C
// result 6.47

// query Param item: COc1ncc(-c2ccc(C(=O)O)cc2C)cc1-c1ccc(C(F)(F)F)nc1CN1C(=O)N[C@H](c2cc(C(F)(F)F)cc(C(F)(F)F)c2)[C@@H]1C
// result 6.44
